# assay-procedure: Inhibition of angiotensin I phosphorylation catalyzed by the protein-tyrosine kinase p56 lck partially purified from bovine thymus.
pIC50: −log10 of the molar value.
assay-readout: pIC50

Some solved entries appear below for comparison.
>  <molecule>
COc1cc(CCc2cccnc2)cc(OC)c1OC

>  <assay-readout>
pIC50

>  <result>
< 2.53

$$$$
>  <molecule>
COc1cc(C(=O)Nc2ccncc2)cc(OC)c1OC

>  <assay-readout>
pIC50

>  <result>
< 2.56

$$$$
>  <molecule>
COc1cc(CNc2ccccn2)cc(OC)c1OC

>  <assay-readout>
pIC50

>  <result>
< 2.54

$$$$
>  <molecule>
COc1ccc(/C=C/c2cccnc2)cc1

>  <assay-readout>
pIC50

>  <result>
< 2.42

$$$$

Continue with the compound presented below.
Problem: Param item = "COc1cc(CNc2ccccn2)cc(OC)c1" ; retrieve measured pIC50.
Solution: < 2.48
